# tested-system: T1, human c-kit (recombinant, on BIAcore chip or beads) (human, UniProt P10721 26-524)
# T1 construct: extracellular domain; also called hcKIT; biotinylated human c-kit
# T1 sequence (P10721 26-524): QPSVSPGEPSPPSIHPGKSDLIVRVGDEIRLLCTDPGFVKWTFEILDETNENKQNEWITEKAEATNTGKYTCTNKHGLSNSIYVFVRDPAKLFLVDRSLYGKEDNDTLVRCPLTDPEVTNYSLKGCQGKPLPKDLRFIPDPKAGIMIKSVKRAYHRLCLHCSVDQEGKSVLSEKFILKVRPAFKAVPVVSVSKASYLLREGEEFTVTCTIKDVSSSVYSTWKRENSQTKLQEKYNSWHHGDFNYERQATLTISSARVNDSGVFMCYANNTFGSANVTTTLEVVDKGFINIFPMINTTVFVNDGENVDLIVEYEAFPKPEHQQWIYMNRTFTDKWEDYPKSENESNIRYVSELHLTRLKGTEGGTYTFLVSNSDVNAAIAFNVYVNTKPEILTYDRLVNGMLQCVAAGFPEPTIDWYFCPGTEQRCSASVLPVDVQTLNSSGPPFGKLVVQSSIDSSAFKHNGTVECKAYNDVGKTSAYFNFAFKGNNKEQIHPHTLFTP
# assay-summary: BIAcore, c-kit on SA chip
recorded-metric: Kd (nM)
Expressed in nM, but write only the number.

Observe how each entry below is paired with its result.
DOM28h-110 (other, dAb, C-terminal FLAG tag (pDOM10)) EVQLLESGGGLVQPGGSLRLSCAASGFTFRKYAMMWVRQAPGKGLEWVSTITASGGGTYYADSVKGRFTISRDNSKNTLYLQMNSLRAEDTAVYYCAKPLNQYATQFDYWGQGTLVTVSS	3300
DOM28h-73 (other, dAb, C-terminal FLAG tag (pDOM10)) EVQLLESGGGLVQPGGSLRLSCAASGFTFDDYWMQWVRQAPGKGLEWVSSISDEGARTYYADSVKGRFTISRDNSKNTLYLQMNSLRAEDTAVYYCAEYPGLAHFGEDFDYWGQGTLVTVSS	1300
DOM28h-5 (other, dAb, C-terminal FLAG tag (pDOM10); also called DOM28h-005) DIQMTQSPSSLSASVGDRVTITCRASQWIGTALTWYQQKPGKAPKLLIYRGSYLQSGVPSRFSGSGSGTDFTLTISSLQPEDFATYYCQQRYFHPYTFGQGTRVEIKR	533
DOM28h-7 (other, dAb, C-terminal FLAG tag (pDOM10)) DIQMTQSPSSLSASVGDRVTITCRASSNIDDDLGWYQQKPGKAPKLLIGWSSDLQSGVPSRFSGSGSGTDFTLTISSLQPEDFATYYCAQWWRGPATFGQGTKVEIKR	1400
DOM28h-94 (other, VH dAb, C-terminal FLAG tag (pDOM10); also called DOM28h-094) VH: EVQLLESGGGLVQPGGSLRLSCAASGFTFFPYAMGWVRQAPGKGLEWVSFISGRGDTTYYADSVKGRFTISRDNSKNTLYLQMNSLRAEDTAVYYCAKTATSDLWNFDYWGQGTLVTVSS	21800

If you can, please state the reported Kd value of DOM28h-54 (other, dAb, C-terminal FLAG tag (pDOM10)) EVQLLESGGGLVQPGGSLRLSCAASGFTFESYDMSWVRQAPGKGLEWVSGIYPDGGATYYADSVKGRFTISRDNSKNTLYLQMNSLRAEDTAVYYCAKGEPNLFDYWGQGTLVTVSS .
490

Can you look up the measured Kd of DOM28h-79 (other, dAb, C-terminal FLAG tag (pDOM10)) EVQLLESGGGLVQPGGSLRLSCAASGFTFKNYDMSWVRQAPGKGLEWVSGIWDDGWATYYADSVKGRFTISRDNSKNTLYLQMNSLRAEDTAVYYCAKGAATPGQTIFDYWGQGTLVTVSS for me?
218

Fill in the blank: the reported Kd of DOM28m-23 (other, VH dAb, C-terminal FLAG tag (pDOM10); also called DOM28m-023) VH: EVRLLESGGGLVQPGGSLRLSCAASGFTFRDYVMVWVRQAPGKGLEWVSAIAPTGGYTYYADSVKGRFTISRDNSKNTLYLQMNSLRAEDTAVYYCAKSLRTWLSEDLPFDYWGQGTLVTVSS is ____.
2900
